biological target: BLK (human); assay: radiometric filter-binding kinase assay, Kinase HotSpot; conditions: compound 0.5 µM; ATP 10 µM
READOUT_NAME: residual activity (%)
Report as a plain number; the unit % is understood.

Some solved entries appear below for comparison.
>>> value_observed("CC(C)c1nn(-c2c(Cl)cccc2Cl)c2nc(Cc3ccc(OCCO)cc3)nc(O)c12")
98.8
>>> value_observed("Oc1ccc(Nc2nc(-c3ccc(Cl)cc3)cs2)cc1")
100
>>> value_observed("COc1ccc(OC)c2c(=S)c3ccccc3[nH]c12")
96.5
>>> value_observed("CC(C)[C@H](CO)Nc1nc(Nc2cc(N)cc(Cl)c2)c2ncn(C(C)C)c2n1")
79.6

[in] Quick one: residual activity for Cn1cnc2cc3c(Nc4cccc(Br)c4)ncnc3cc21 ?
[out] 81

[in] Quick one: residual activity for CCN(CC)CCCCN1c2ccccc2Oc2ccc(Cl)cc21 ?
[out] 106

[in] Quick one: residual activity for O=C(O)/C=C/c1cc(Br)c(Br)c(Br)c1Br ?
[out] 95.1

[in] Quick one: residual activity for CN(C)C[C@H]1CCn2c(c(C3=C(c4cn(C)c5ccccc45)C(=O)NC3=O)c3ccccc32)C1 ?
[out] 103

[in] Quick one: residual activity for CN([C@@H](Cc1ccc(OS(=O)(=O)c2cccc3cnccc23)cc1)C(=O)N1CCN(c2ccccc2)CC1)S(=O)(=O)c1cccc2cnccc12 ?
[out] 102

[in] Quick one: residual activity for O=C1Nc2ccccc2/C1=C1\Nc2ccccc2\C1=N/O ?
[out] 75.1

###

molecular target: CSNK1G1 (human); experiment: radiometric filter-binding kinase assay, Kinase HotSpot; details: compound 0.5 µM; ATP 10 µM
Below, each entry is listed alongside its reported residual activity.
Report as a plain number; the unit % is understood.

[in] Quick one: residual activity for CC(=O)O/N=C1\C(=C2\C(=O)Nc3cc(Br)ccc32)Nc2ccccc21 ?
[out] 93.9

[in] Quick one: residual activity for CC(C)c1nn(-c2c(Cl)cccc2Cl)c2nc(Cc3ccc(OCCO)cc3)nc(O)c12 ?
[out] 101

[in] Quick one: residual activity for CCn1cnc2c(Nc3cccc(Cl)c3)nc(N[C@@H]3CCCC[C@@H]3N)nc21 ?
[out] 56.8

[in] Quick one: residual activity for O=C1NC(=O)/C(=C\c2ccc3nccnc3c2)S1 ?
[out] 101

[in] Quick one: residual activity for O=C(O)/C=C/c1cc(Br)c(Br)c(Br)c1Br ?
[out] 97.2

[in] Quick one: residual activity for O=C1Nc2ccccc2/C1=C1/Nc2ccccc2/C1=N\OCCC(O)CO (stereo unspecified) ?
[out] 89.2

###

target: DYRK2 (human); experiment: radiometric filter-binding kinase assay, Kinase HotSpot; details: compound 0.5 µM; ATP 10 µM
Below, each entry is listed alongside its reported residual activity.
Report as a plain number; the unit % is understood.

Some solved entries appear below for comparison.
>>> value_observed("CC(C)[C@H](CO)Nc1nc(Nc2cc(N)cc(Cl)c2)c2ncn(C(C)C)c2n1")
93.2
>>> value_observed("Nc1nnc2[nH]c3ccccc3nc1-2")
91.6
>>> value_observed("Cn1cnc2cc3c(Nc4cccc(Br)c4)ncnc3cc21")
95.5
>>> value_observed("COc1ccc(OC)c2c(=S)c3ccccc3[nH]c12")
96.8
>>> value_observed("CC(=O)O/N=C1\\C(=C2\\C(=O)Nc3cc(Br)ccc32)Nc2ccccc21")
94.4

[in] Quick one: residual activity for O=C(CCCc1ccc(-c2ccccc2F)cc1)Nc1ccc(O)cc1 ?
[out] 91.8
